From: paper PMC8151276

This listing pairs compounds with measured NanoBRET Fold Response.
system_under_test: AVPR2 (Homo sapiens, UniProt P30518)
Construct: purchased Promega (in-house HiBiT-GPCR construct library, NanoBRET)
Sequence (P30518 whole entry): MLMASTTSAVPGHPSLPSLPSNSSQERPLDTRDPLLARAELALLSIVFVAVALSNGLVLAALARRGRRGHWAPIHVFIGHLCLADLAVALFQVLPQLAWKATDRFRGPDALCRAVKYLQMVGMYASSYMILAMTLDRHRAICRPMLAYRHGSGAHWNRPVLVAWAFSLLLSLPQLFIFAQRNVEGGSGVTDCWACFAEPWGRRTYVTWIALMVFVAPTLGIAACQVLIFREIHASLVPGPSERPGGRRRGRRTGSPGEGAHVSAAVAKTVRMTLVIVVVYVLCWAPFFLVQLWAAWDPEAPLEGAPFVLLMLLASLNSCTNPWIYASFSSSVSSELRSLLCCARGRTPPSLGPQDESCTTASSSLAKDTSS
method_summary: NanoBRET screen HiBiT-AVPR2 in HEK293
Type: binding
run_parameters: AVPR2; tracer 0.1μM
Procedure: Each tracer candidate was screened across the entire library of HiBiT-GPCR constructs using NanoBRET as the detection modality. As depicted in Figure 4A, the specificity of interactions was evaluated through decrease in BRET due to competitive displacement of a bound tracer by excess parental compound. Each tracer was analyzed for binding to each HiBiT-GPCR fusion in the absence and in the presence of competing parental compound. […]
The answer should be a number; do not append a unit.

# annotated cases, reported NanoBRET Fold Response shown
>>> recorded_result("O=C(CCc1ccc2n1[B-](F)(F)[N+]1=C(c3ccc[nH]3)C=CC1=C2)NCCOCCOCCNC(=O)OCCOCCN1CCN(C2=Nc3ccccc3Sc3ccccc32)CC1 [Quetiapine-a-2-NB590]")
1.03
>>> recorded_result("COc1ccccc1N1CCN(CCCCN2C(=O)c3ccc(CNC(=O)CCOCCNC(=O)c4ccc(CNC(=O)CCc5ccc6n5[B-](F)(F)[N+]5=C(c7ccc[nH]7)C=CC5=C6)cc4)cc3C2=O)CC1 [NAN-190-3-NB590]")
1.08

Then there is this compound:
Query string: Which NanoBRET Fold Response is listed for CC(C)N(CC[C@H](c1ccccc1)c1cc(CCNC(=O)c2ccc(CNC(=O)CCc3ccc4n3[B-](F)(F)[N+]3=C(c5ccc[nH]5)C=CC3=C4)cc2)ccc1O)C(C)C [Tolterodine-BZ-NB590] ?
Result string: 0.97
